- Test system: NCI-H23 lung
- method_notes: NCI tumour cell line growth inhibition, 48 h
Exercise: state measured TGI for each of the compounds provided.

Value lookup for TGI; key = CC(=O)OC1Oc2ccccc2-c2oc(=O)c(-c3cc4ccccc4oc3=O)cc21 (stereo unspecified) 52.4 µM

Another compound to look at: CC(C)OC(=O)[C@@H](O)[C@H](CO)C1=CC([Si](C)(C)c2ccccc2)=CON1 > 100 µM

Another compound to look at: Cc1cc2cn3c4cccnc4[nH]c(=O)c3c2cc1C 2.74 µM

Another compound to look at: NS(=O)(=O)c1ccc(NC(=O)c2cccc3cc4ccccc4nc23)cc1 > 100 µM

Another compound to look at: Cc1nc2ccccc2n1Cc1nnc(N)o1 > 100 µM

Another compound to look at: Cc1cccc(C)c1NC(=O)CCc1n[nH]c(=S)o1 > 100 µM

Another compound to look at: c1ccc(C2=NCCc3cc4c(cc32)OCO4)cc1 > 100 µM

Another compound to look at: COc1cc(/C=C2\C(=O)Nc3cccc(Cl)c32)cc(OC)c1OC > 100 µM

Another compound to look at: COc1ccc2c(c1)C1(C(=O)N2)C(C#N)=C(c2ccccc2)Nc2c1c(-c1ccccc1)nn2-c1ccccc1 (stereo unspecified) 7.51 µM

Another compound to look at: COc1ccc(-c2cc(=O)c3c(OC)c(OC)c(OC)c(OC)c3o2)c(OC)c1 58.5 µM

Another compound to look at: c1ccc2c(c1)CC1COc3ccccc3C1O2 (stereo unspecified) > 100 µM

* * *

- Tested on: OVCAR-4 ovarian
- method_notes: NCI tumour cell line growth inhibition, 48 h
Exercise: state measured TGI for each of the compounds provided.
Your answer should be a plain number; it is taken to be in µM.

Request: TGI, test system OVCAR-4 ovarian, entry CCN(CC)CCCC(C)NC(=O)c1ccc2c(c1)C(=O)c1ccccc1C2=O (stereo unspecified) 30.4

Another compound to look at: C1COCCOCCOCCOCCO1.CC(=O)[CH-]C(C)=O.CC(=O)[CH-]C(C)=O.CC(=O)[CH-]C(C)=O.[V] 3.81

Another compound to look at: COC1=C(Br)C(=O)C2=C(C1=O)C1C3=C(C(=O)C=CC3=O)C2c2ccccc21 (stereo unspecified) 63.7

Another compound to look at: N=c1c2c(=S)n(-c3ccccc3)c(=S)n(-c3ccccc3)c2nc(SCCN2CCOCC2)n1-c1ccccc1 3.4

Another compound to look at: C[C@]1(O)O[C@@H]2OCC[C@@H]2C2=C1C(=O)c1ccccc1C2=O 28.4

Another compound to look at: O=c1cc(N=Nc2ccc(Cl)cc2)[nH]c(=O)[nH]1 9.03

Another compound to look at: CCNCCCn1c2c(c3ccc([N+](=O)[O-])cc3c1=O)C(=O)c1cc(OC)cnc1-2 1.49

Another compound to look at: CS(=O)(=O)OCCN(CCOS(C)(=O)=O)c1ccc(C=O)cc1 37.6

Another compound to look at: Cc1cc2nc(N3C(=O)/C(=C/c4ccc(Cl)cc4)N=C3c3ccccc3)sc2cc1C 91.8

Another compound to look at: CNCCCNCCCN1C(=O)c2ccc3c4c(ccc(c24)C1=O)C(=O)N(CCCNCc1ccccc1OC)C3=O 2.04

* * *

- Test system: DU-145 prostate
- method_notes: NCI tumour cell line growth inhibition, 48 h; in the data active = GI50 below about 0.43 µM; inactive = the rest
The reply should name one outcome from active, inactive

Could you kindly confirm the outcome this assay logged for Cc1cc2cn3c4cccnc4[nH]c(=O)c3c2cc1C ? inactive

Another compound to look at: CCNCCCn1c2c(c3ccc([N+](=O)[O-])cc3c1=O)C(=O)c1cc(OC)cnc1-2 active

Another compound to look at: N#Cc1c(N)nc(N2CCOCC2)c(C#N)c1-c1ccccc1Cl inactive

Another compound to look at: CN(C)CCCn1c2nc(=O)[nH]c(=O)c-2nc2cc(Cl)c(Cl)cc21 inactive

Another compound to look at: C=C1C[C@@]2(C)C(CC[C@]3(C)C2CC=C2C4CC(C)(C)C[C@@H](OC(=O)/C(C)=C\C)[C@]4(C(=O)O)CC[C@]23C)C(C)(C)C1=O (some centres undefined) inactive

Another compound to look at: O=C1CS/C(=N\S(=O)(=O)c2ccc(N3N=C4c5ccccc5CC4C3c3ccc(Cl)cc3)cc2)N1c1ccccc1 (centres undefined) inactive

Another compound to look at: O=C(Nc1ccccc1)Nc1cccc(Oc2nnc(Cl)c3ccccc23)c1 inactive

Another compound to look at: COc1ccc(-c2csc(NC(=O)c3cc(O)c(O)c(O)c3)n2)cc1 inactive

Another compound to look at: N#Cc1ccc2c(c1)C(=O)c1c-2n(CCCN)c(=O)c2cc([N+](=O)[O-])ccc12 active

Another compound to look at: C=C1C(=O)O[C@H]2[C@H]1CC/C(Cn1cc(-c3cc(C)c(C)cc3C)nn1)=C\CC[C@@]1(C)O[C@@H]21 inactive

Another compound to look at: NC(=O)c1ccc2nc3c(n2c1)C(=O)C(=O)c1ccccc1-3 inactive

Another compound to look at: Fc1ccc2[nH]cc(SSc3c[nH]c4ccc(F)cc34)c2c1 inactive

Another compound to look at: O=C(COc1cccc(/C=C2\CSc3ccccc3C2=O)c1)c1ccc(Cl)cc1 inactive

Another compound to look at: OCC(O)C(O)C(O)/C=N/Nc1nc2ccccc2nc1-c1ccccc1 (centres undefined) inactive
